The reported numbers originate from patent US20220259193A1.

# system_name: KCNT1 (KNa1.1, Slack) (Homo sapiens, UniProt Q5JUK3)
# measurement_description: KCNT1 patch clamp assay (SyncroPatch 384PE automated patch clamp)
# experimental_context: tetracycline inducible HEK-TREX cell line; perforated patch; step from −80 mV to 0 mV; room temperature; read-out: KCNT1-WT IC50
Reported IC50 values for a set of compounds

The examples below pair each entry with its known result.
# compound, system_name, assay_metric, result_value
records = [
    ("C[C@H](NC(=O)c1cn(C)nc1C(F)(F)F)c1nc(-c2cccc(F)c2)no1 [Compound 160]", "KCNT1 (KNa1.1, Slack) (Homo sapiens, UniProt Q5JUK3)", "IC50", "1 to 20 µM"),
    ("Cc1cccc(-c2noc(C(C)NC(=O)c3cnn(C(C)C)c3C)n2)c1 (centres unmarked) [Compound 59]", "KCNT1 (KNa1.1, Slack) (Homo sapiens, UniProt Q5JUK3)", "IC50", "≥ 20 µM"),
    ("Cn1nc(C(F)(F)F)cc1C(=O)NC(CNC(=O)OCc1ccccc1)c1nc(-c2cccc(F)c2)no1 (centres unmarked) [Compound 157]", "KCNT1 (KNa1.1, Slack) (Homo sapiens, UniProt Q5JUK3)", "IC50", "1 to 20 µM"),
    ("Cn1nc(C2CC2)cc1C(=O)NC(c1ccccc1)c1nc(-c2cccc(F)c2)no1 (centres unmarked) [Compound 51]", "KCNT1 (KNa1.1, Slack) (Homo sapiens, UniProt Q5JUK3)", "IC50", "1 to 20 µM"),
    ("C[C@H](NC(=O)c1cn(C)nc1C1CCOCC1)c1nc(-c2cccc(F)c2)no1 [Compound 166]", "KCNT1 (KNa1.1, Slack) (Homo sapiens, UniProt Q5JUK3)", "IC50", "1 to 20 µM"),
]

Task: Give IC50 (KCNT1 (KNa1.1, Slack) (Homo sapiens, UniProt Q5JUK3)) of the following compound: Cc1cccc(-c2noc(C(C)NC(=O)c3c(C)cnn3C(C)C)n2)c1 (centres unmarked) [Compound 55]
Result: 1 to 20 µM

Task: Lookup: IC50 / KCNT1 (KNa1.1, Slack) (Homo sapiens, UniProt Q5JUK3) / C[C@@H](NC(=O)OC(C)(C)C)c1nc(-c2cccc(F)c2)no1 [Compound 282]
Result: 1 to 20 µM

Task: # get_value(readout= IC50, system= KCNT1 (KNa1.1, Slack) (Homo sapiens, UniProt Q5JUK3)) for CC[C@H](NC(=O)c1cc(C(F)(F)F)nn1C)c1nc(-c2ccnc(C)c2)no1 [Compound 199]
Result: ≤ 1 µM

----------
Here the recorded pIC50 is given for each entry.
# system_name: KCNT1 (KNa1.1, Slack) (Homo sapiens)
# measurement_description: KCNT1 patch clamp assay (SyncroPatch 384PE automated patch clamp)
# experimental_context: tetracycline inducible HEK-TREX cell line; perforated patch; step from −80 mV to 0 mV; room temperature; read-out: KCNT1-WT IC50
pIC50: −log10 of the molar value.

Example molecules with recorded pIC50:
# molecule, result_value
data = [
    ("CC(NC(=O)c1cc(C(F)(F)F)nn1C)c1nc(-c2cccc(S(C)(=O)=O)c2)no1 (stereo not shown)", "4.70 to 6.00"),
    ("C[C@H](NC(=O)c1cc(C(F)(F)F)nn1C)c1nc(-c2ccnc(N3CC(F)(F)C3)c2)no1", "≥ 6.00"),
    ("COc1cc(-c2noc([C@H](C)NC(=O)OC(C)(C)C)n2)cc(C)n1", "≥ 6.00"),
]

Task: Requested read-out: pIC50. Entry: CC(NC(=O)c1c2c(nn1C)CCCC2)c1nc(-c2cccc(F)c2)no1 (stereo not shown)
Result: 4.70 to 6.00

----------
# system_name: KCNT1 (KNa1.1, Slack) (Homo sapiens)
# Sequence (Q5JUK3 1-1230): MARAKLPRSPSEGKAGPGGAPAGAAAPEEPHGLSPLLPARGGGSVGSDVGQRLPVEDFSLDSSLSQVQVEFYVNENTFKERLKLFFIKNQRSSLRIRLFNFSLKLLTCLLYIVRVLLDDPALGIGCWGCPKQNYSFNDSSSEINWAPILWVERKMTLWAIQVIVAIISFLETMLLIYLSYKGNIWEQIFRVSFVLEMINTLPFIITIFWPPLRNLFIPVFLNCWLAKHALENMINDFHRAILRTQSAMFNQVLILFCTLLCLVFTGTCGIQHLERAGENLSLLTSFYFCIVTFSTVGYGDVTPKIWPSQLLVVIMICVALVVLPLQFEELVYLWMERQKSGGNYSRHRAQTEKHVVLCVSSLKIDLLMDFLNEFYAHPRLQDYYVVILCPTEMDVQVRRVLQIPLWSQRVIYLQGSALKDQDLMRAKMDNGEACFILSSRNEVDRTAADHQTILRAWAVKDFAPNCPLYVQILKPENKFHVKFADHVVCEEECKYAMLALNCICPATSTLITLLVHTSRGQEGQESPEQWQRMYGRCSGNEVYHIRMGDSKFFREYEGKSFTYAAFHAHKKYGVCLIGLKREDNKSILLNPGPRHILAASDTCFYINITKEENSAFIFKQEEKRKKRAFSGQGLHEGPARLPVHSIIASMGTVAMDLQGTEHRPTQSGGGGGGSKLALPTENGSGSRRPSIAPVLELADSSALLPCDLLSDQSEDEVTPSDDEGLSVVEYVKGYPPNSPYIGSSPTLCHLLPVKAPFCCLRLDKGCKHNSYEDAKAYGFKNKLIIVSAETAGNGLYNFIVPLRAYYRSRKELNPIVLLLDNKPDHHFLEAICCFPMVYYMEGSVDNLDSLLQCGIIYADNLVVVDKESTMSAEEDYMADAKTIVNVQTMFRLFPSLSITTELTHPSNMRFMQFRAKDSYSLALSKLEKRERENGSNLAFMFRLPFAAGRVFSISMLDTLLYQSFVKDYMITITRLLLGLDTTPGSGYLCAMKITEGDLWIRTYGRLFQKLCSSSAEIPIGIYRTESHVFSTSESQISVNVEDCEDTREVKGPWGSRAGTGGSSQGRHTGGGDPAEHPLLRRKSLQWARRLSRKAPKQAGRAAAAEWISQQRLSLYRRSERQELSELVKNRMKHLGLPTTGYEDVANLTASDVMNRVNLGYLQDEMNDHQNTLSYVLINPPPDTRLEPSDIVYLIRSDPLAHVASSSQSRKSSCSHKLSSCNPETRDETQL
# measurement_description: KCNT1 patch clamp assay (SyncroPatch 384PE automated patch clamp)
# experimental_context: tetracycline inducible HEK-TREX cell line; perforated patch; step from −80 mV to 0 mV; room temperature; read-out: KCNT1-WT IC50
pIC50: −log10 of the molar value.
assay_metric: pIC50

Record excerpt, results attached:
# compound, pIC50
data = [
    ("C[C@H](NC(=O)c1cc(C(F)F)nn1C1CC1)c1nc(-c2cccc(F)c2)no1", "≥ 6.00"),
    ("Cc1cccc(-c2noc(C(C)NC(=O)c3cc(C)nn3C(C)(C)C)n2)c1 (stereo not shown)", "4.70 to 6.00"),
    ("CC(C)Oc1cc(-c2noc([C@H](C)NC(=O)c3cc(-c4ccc(F)cc4)nn3C)n2)ccn1", "≥ 6.00"),
    ("CNC(=O)C[C@@H](NC(=O)c1cc(C(F)(F)F)nn1C)c1nc(-c2cccc(F)c2)no1 (single isomer, unassigned)", "≤ 4.70"),
    ("Cc1nn(C(C)C)cc1C(=O)N[C@@H](C)c1nc(-c2ccc(F)c(Cl)c2)no1", "4.70 to 6.00"),
    ("CC(NC(=O)c1cc(C(F)(F)F)nn1C)c1nc(-c2cccc(CC#N)c2)no1 (stereo not shown)", "4.70 to 6.00"),
]

Task: pIC50 for `C[C@H](NC(=O)c1cc(C(F)(F)F)nn1C)c1nc(-c2ccnc(CS(C)(=O)=O)c2)no1` ?
Result: ≤ 4.70

Task: Entry `CC[C@@H](NC(=O)c1cc(C(F)(F)F)nn1C)c1nc(-c2ccnc(C3CC3)c2)no1` has what pIC50?
Result: ≥ 6.00

Task: Entry under review: `CC[C@H](NC(=O)c1cc(C)nn1-c1ccccc1)c1nc(-c2ccnc(C)c2)no1` . Reported pIC50?
Result: ≥ 6.00

Task: pIC50 lookup needed for CC(NC(=O)c1cc(C2CC2)nn1C)c1nc(-c2cccc(Cl)c2)no1 (stereo not shown) , thanks.
Result: ≥ 6.00

Task: Look up pIC50 for this compound: `CN(Cc1nc(-c2ccnc(C3CC3)c2)no1)C(=O)c1cc(C(F)(F)F)nn1C`
Result: ≥ 6.00

Task: For the compound `C[C@H](NC(=O)c1ccnn1C1CCCC1)c1nc(-c2ccnc(C3CC3)c2)no1` , what pIC50 is on record?
Result: ≥ 6.00

Task: Param item = `Cc1cc(C(=O)N[C@@H](C)c2nc(-c3ccnc(C4CC4)c3)no2)n(C)n1` ; retrieve measured pIC50.
Result: ≥ 6.00

Task: Which pIC50 is reported for this compound? COC[C@@H](NC(=O)c1cc(C(F)(F)F)nn1C)c1nc(-c2cccc(C)c2)no1 (single isomer, unassigned)
Result: ≥ 6.00

Task: Give its pIC50 value. Item: `CC(C)OCc1cc(-c2noc([C@H](C)NC(=O)c3cc(C(F)(F)F)nn3C)n2)ccn1`
Result: 4.70 to 6.00

Task: What measured pIC50 goes with `Cc1cc(C(=O)N[C@@H](C)c2nc(-c3ccnc(C(F)(F)F)c3)no2)n(C)n1` ?
Result: 4.70 to 6.00
